biological target: DYRK2 (Homo sapiens); test: KINOMEscan competition binding; details: read-out: %Inh DYRK2
Sequence (Q92630 whole entry): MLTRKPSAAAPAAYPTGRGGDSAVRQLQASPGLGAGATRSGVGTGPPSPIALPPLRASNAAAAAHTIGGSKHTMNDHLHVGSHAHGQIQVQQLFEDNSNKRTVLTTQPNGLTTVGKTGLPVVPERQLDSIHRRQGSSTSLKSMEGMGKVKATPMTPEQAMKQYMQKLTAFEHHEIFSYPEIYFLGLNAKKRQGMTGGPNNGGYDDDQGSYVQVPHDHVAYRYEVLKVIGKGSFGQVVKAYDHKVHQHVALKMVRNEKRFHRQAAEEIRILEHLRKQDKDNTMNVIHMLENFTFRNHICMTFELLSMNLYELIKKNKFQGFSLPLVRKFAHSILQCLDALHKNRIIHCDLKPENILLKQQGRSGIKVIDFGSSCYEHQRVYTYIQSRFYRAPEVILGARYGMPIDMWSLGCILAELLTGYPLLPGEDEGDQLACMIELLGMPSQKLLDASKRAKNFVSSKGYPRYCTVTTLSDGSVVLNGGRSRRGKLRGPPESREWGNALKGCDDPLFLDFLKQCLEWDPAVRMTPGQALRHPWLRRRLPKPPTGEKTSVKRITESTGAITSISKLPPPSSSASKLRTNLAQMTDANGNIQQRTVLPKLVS
Here, each record is paired with measured inhibition at 1 µM data.
property-measured: inhibition at 1 µM (%)

> print(dat)
                                   compound       measured.target  value.reported
1  COc1cccc(OC)c1C(=O)Nc1cccc(-c2nn3ccccc3c2-c2ccnc(Nc3cccc(F)c3)n2)c1 [UNC10225310A]  DYRK2 (Homo sapiens)               0
2  Cn1cc(-c2cnc(N)c3c(-c4ccc5c(c4)CCN5C(=O)Cc4ccccc4)csc23)cn1 [UNC10225012A]  DYRK2 (Homo sapiens)               8
3  Cc1ccc(NC(=O)Nc2cccc(C(F)(F)F)c2)cc1 [UNC10225187A]  DYRK2 (Homo sapiens)               0
4  O=c1cc(N2CCOCC2)nc2n(Cc3cccc(Cl)c3Cl)c(C3CC3)nn12 [UNC10225469A]  DYRK2 (Homo sapiens)               1
5  CS(=O)(=O)Cc1ccc(Nc2nccc(-c3c(-c4cccc(NC(=O)C5CCCCC5)c4)nn4ncccc34)n2)cc1 [UNC10225159A]  DYRK2 (Homo sapiens)               5

* * *

target: ICK (Homo sapiens, UniProt Q9UPZ9); test: KINOMEscan competition binding; conditions: read-out: %Inh ICK
Sequence (Q9UPZ9 whole entry): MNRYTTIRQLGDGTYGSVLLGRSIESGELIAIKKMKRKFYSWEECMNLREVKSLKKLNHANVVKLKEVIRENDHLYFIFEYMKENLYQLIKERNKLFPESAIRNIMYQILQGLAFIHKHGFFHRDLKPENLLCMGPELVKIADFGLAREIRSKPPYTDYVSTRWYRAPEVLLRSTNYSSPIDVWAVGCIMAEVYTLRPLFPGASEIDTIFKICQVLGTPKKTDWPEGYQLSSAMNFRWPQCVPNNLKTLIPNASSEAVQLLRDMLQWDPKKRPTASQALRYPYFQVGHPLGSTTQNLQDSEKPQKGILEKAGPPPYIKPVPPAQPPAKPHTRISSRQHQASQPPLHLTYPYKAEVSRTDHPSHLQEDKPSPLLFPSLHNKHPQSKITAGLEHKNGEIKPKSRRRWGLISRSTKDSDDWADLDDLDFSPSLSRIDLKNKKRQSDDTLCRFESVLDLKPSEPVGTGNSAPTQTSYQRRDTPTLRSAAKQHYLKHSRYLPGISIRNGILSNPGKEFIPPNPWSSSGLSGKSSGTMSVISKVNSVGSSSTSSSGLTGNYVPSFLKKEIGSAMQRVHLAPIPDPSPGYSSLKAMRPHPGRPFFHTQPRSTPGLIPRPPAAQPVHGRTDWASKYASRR
property-measured: inhibition at 1 µM

> print(dat)
                                   molecule  value.reported
1  Cc1ccc(NC(=O)Nc2cccc(C(F)(F)F)c2)cc1 [UNC10225187A]              0%
2  CS(=O)(=O)Cc1ccc(Nc2nccc(-c3c(-c4cccc(NC(=O)C5CCCCC5)c4)nn4ncccc34)n2)cc1 [UNC10225159A]             14%
3  COc1cccc(OC)c1C(=O)Nc1cccc(-c2nn3ccccc3c2-c2ccnc(Nc3cccc(F)c3)n2)c1 [UNC10225310A]              0%
4  O=c1cc(N2CCOCC2)nc2n(Cc3cccc(Cl)c3Cl)c(C3CC3)nn12 [UNC10225469A]              4%
5  Cn1cc(-c2cnc(N)c3c(-c4ccc5c(c4)CCN5C(=O)Cc4ccccc4)csc23)cn1 [UNC10225012A]            100%

* * *

Here, each record is paired with measured inhibition at 1 µM data.
target: INSR (Homo sapiens, UniProt P06213); assay: KINOMEscan competition binding; details: read-out: %Inh INSR
Sequence (P06213 28-1382): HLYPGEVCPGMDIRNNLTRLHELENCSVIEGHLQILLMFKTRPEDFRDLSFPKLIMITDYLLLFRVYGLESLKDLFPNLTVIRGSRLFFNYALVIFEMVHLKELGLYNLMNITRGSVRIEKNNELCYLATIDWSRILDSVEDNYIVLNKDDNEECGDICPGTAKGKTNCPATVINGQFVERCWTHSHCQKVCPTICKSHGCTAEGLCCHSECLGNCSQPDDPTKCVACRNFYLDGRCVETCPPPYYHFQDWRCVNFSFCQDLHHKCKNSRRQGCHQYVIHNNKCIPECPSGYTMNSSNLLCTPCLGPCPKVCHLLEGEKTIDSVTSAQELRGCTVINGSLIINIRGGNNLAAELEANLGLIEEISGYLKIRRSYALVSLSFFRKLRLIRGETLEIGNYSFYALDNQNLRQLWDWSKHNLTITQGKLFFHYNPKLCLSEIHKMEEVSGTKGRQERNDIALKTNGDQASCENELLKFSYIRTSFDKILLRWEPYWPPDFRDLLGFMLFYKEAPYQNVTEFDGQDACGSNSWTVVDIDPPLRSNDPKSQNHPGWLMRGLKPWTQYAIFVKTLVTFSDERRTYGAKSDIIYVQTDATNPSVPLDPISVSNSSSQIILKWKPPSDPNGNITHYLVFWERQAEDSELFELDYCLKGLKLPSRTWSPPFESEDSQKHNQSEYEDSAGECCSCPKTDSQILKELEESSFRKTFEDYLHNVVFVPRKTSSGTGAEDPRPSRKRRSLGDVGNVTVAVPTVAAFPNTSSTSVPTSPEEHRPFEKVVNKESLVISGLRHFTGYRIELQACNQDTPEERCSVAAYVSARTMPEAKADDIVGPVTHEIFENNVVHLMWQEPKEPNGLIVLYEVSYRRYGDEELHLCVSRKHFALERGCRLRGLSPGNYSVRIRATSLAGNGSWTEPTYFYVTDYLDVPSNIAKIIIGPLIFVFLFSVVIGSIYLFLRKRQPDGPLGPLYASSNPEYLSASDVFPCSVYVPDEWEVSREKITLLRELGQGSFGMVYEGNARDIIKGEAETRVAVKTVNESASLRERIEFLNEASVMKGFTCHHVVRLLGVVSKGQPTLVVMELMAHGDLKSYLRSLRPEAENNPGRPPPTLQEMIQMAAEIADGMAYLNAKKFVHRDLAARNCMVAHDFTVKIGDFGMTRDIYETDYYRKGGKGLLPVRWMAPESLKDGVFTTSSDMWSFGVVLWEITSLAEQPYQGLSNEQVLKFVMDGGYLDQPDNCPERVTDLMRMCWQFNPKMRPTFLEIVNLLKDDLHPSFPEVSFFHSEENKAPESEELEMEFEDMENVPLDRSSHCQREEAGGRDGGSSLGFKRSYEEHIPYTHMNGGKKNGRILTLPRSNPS
property-measured: inhibition at 1 µM

> print(dat)
                                   molecule                      measured.target  value.reported
1  COc1cccc(OC)c1C(=O)Nc1cccc(-c2nn3ccccc3c2-c2ccnc(Nc3cccc(F)c3)n2)c1 [UNC10225310A]  INSR (Homo sapiens, UniProt P06213)              0%
2  Cc1ccc(NC(=O)Nc2cccc(C(F)(F)F)c2)cc1 [UNC10225187A]  INSR (Homo sapiens, UniProt P06213)              0%
3  O=c1cc(N2CCOCC2)nc2n(Cc3cccc(Cl)c3Cl)c(C3CC3)nn12 [UNC10225469A]  INSR (Homo sapiens, UniProt P06213)              0%
4  CS(=O)(=O)Cc1ccc(Nc2nccc(-c3c(-c4cccc(NC(=O)C5CCCCC5)c4)nn4ncccc34)n2)cc1 [UNC10225159A]  INSR (Homo sapiens, UniProt P06213)             42%
5  Cn1cc(-c2cnc(N)c3c(-c4ccc5c(c4)CCN5C(=O)Cc4ccccc4)csc23)cn1 [UNC10225012A]  INSR (Homo sapiens, UniProt P06213)             12%

These measurements were taken from paper PMC5540273.
